Test: Pharmacokinetics in AAV8-CYP3A4*1 mice
Details: C57BL/6J, mouse, in vivo, po, 16.5 mg/kg, Cmax, carvedilol 7.5 mg/kg 0.5 h before aumolertinib 16.5 mg/kg oral (Car+Aum)
readout-type: Cmax (ng/mL)

1) C=CC(=O)Nc1cc(Nc2nccc(-c3cn(C4CC4)c4ccccc34)n2)c(OC)cc1N(C)CCN(C)C : 96.5

###

Test: Pharmacokinetics in AAV8-CYP3A4*1 mice
Details: C57BL/6J, mouse, in vivo, po, 16.5 mg/kg, Vz/F, carvedilol 7.5 mg/kg 0.5 h before aumolertinib 16.5 mg/kg oral (Car+Aum)
readout-type: Vd/F (L/kg)

1) C=CC(=O)Nc1cc(Nc2nccc(-c3cn(C4CC4)c4ccccc34)n2)c(OC)cc1N(C)CCN(C)C [Aumolertinib] : 105

Data provenance: paper PMC11157048
